This listing pairs binders with measured log10 IC50.
# assay.system: human IGF-1 receptor (IGF-1R) (human, UniProt P08069)
# protocol.details: competition, TR-FRET vs b-20E2
The base-10 logarithm of IC50, taken with IC50 in nM, is what appears here.

# example entries with known answers
* SQAGSAFYAWFDQVLRTV [RP15] | 2.85
* PPWGARFYDAIEQLVFDNL [RP4] | 3.91
* CWARPCGDAANFYDWFVQQAS [C1 (D112)] | 1.00
* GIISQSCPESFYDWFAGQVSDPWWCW [S326 / G33] | 2.25

Q) Could you tell me which log10 IC50 is on file for DYKDFYDAIDQLVRGSARAGGTRD [20E2 (D118)] ?
A) 2.00

Q) Would you mind doing GSLDESFYDWFERQLG [S386 / RP9 without terminal lysines] as well?
A) 1.52

Q) Would you mind doing VMDARDDPFYHKLSELVT [RP16] as well?
A) 2.98
